TARGET_OF_ASSAY: Aldehyde dehydrogenase, mitochondrial (Homo sapiens) (UniProt P05091)
ASSAY_EXPLANATION: qHTS for Inhibitors of the Aldehyde Dehydrogenase Family (ALDH2) Primary screen (AID 2061308); also: potency is read from the fitted curve at half-maximal effect; nearly all actives have a fitted effect of over 55% in size
RECORDED_CONDITIONS: ALDH2 enzyme inhibition qHTS, 1536-well; series mostly up to 56 µM
Results filed as inconclusive are left out. Active and inactive are the calls of the source. Calls follow the shape of the dose curve; as a rule, active = well fitted inhibition curve with a large enough effect; inconclusive = small, poorly fitted or top-dose-only effect; inactive = flat fitted curve, though single readings scatter.
Would you kindly list Potency for each of these compounds?

q: Read the entry O=C1c2ccccc2NC(c2ccc(-c3cccc([N+](=O)[O-])c3)o2)N1O (stereo unspecified) and write its reported Potency.
a: 10000 nM (active)

q: Please report Potency for the following compound: S=C(Nc1cc(Cl)ccn1)N1CCN(c2ccc3ccccc3n2)CC1
a: 1580 nM (active)

q: Please indicate Potency recorded for COc1ccnc(NC(=S)N2CCN(c3ccc(Cl)c(Cl)c3)CC2)c1
a: 15800 nM (active)

q: Determine from records and report Potency for CC(C)N(CCC(=O)c1ccc2ccccc2c1)Cc1ccccc1
a: 251 nM (active)

q: Read off the recorded Potency for O=C(Nc1ccc(F)c(C(F)(F)F)c1)Nc1nnc(C2CCCCC2)s1
a: 8910 nM (active)

q: Look up and report measured Potency for this entry: O=[N+]([O-])c1ccc(S(=O)(=O)c2ccc(Cl)cc2)nc1
a: 251 nM (active)

q: Identify Potency associated with the compound CC(=O)N1CCN(c2ccc(NCc3ccc(-c4cccc(Cl)c4)o3)cc2)CC1
a: 2240 nM (active)

q: Output Potency of N#Cc1c(C(=O)c2cccs2)no[n+]1[O-]
a: 282 nM (active)

q: Identify Potency associated with the compound O=C1c2ccccc2NC(c2ccc(-c3ccc(-c4ccccc4)cc3)o2)N1O (stereo unspecified)
a: 1580 nM (active)

q: Read off the recorded Potency for N#Cc1c(O)c2c(-c3ccc(-c4ccccc4O)cc3)csc2[nH]c1=O
a: 17800 nM (active)

q: For the compound COc1ccc([N+](=O)[O-])c(S(=O)(=O)c2ccc(Cl)cc2)n1 , give its measured Potency value.
a: 1780 nM (active)

q: Tell me measured Potency for Cc1cc(C)nc(NC(=S)N2CCN(c3ccc4ccccc4c3)CC2)c1 please.
a: 11200 nM (active)

q: Quote Potency reported for CC(C)(C)OC(=O)N1CCN(c2cccc(NCc3ccc(-c4ccc(C#N)cc4)o3)c2)CC1 please.
a: 282 nM (active)

q: Answer with reported Potency of COc1ccc([N+](=O)[O-])c(S(=O)(=O)c2ccccc2)n1
a: 4470 nM (active)

q: Specify measured Potency for Cc1cc(C)nc(NC(=S)N2CCN(c3ccc4nsnc4c3)CC2)c1 .
a: 7940 nM (active)

q: Entry CC(C)(C)OC(=O)N1CCN(c2ccc(NCc3ccnc(-c4ccc(C#N)cc4)n3)cc2)CC1 needs its Potency filled in; supply it.
a: 282 nM (active)

q: Look up and report measured Potency for this entry: S=C(c1ccc(-c2ccc(Cl)c(Cl)c2)o1)N1CCCCC1
a: 22400 nM (active)

q: Provide Potency value for the following compound: COc1nc2ccc(Br)cc2cc1[C@@H](c1ccccc1)[C@@](O)(CCN(C)C)c1cccc2ccccc12
a: 708 nM (active)

q: Please list Potency recorded for the compound c1cc(NCCc2c[nH]c3ccccc23)cc(Nc2ccncc2)c1
a: 10000 nM (active)

q: Supply reported Potency belonging to this compound: O=C1c2ccccc2NC(c2ccc(Br)o2)N1O (stereo unspecified)
a: 1410 nM (active)

q: Give me measured Potency, please, for this compound: NCc1ccc(OCCCc2sc(-c3ccc4c(c3)/C(=N/Nc3nc5ccccc5s3)CCC4)nc2C(=O)O)cc1
a: 31600 nM (active)
